Reference source: PubChem BioAssay AID2060889

- Tested on: LG0567-F671-PDC complex spheroids viability
- procedure text: Anticancer human tumor LG0567-F671-PDC patient-derived lung adenocarcinoma cell line growth inhibition [RAS]; active = viability on the fitted dose curve at most 10% of control; inactive = the rest
- details: second compound 0.3 µM; first compound 0.316 µM
- Description: RAS pathway inhibitors in Combinations in Complex Spheroids A high-throughput screen of multi-cell type tumor spheroids was designed to identify active combinations of RAS pathway inhibitors and targeted small molecules. Complex spheroids include a stromal component modeled by human endothelial cells (HUVEC) and fibroblasts modeled by human mesenchymal stem cells (MSCs). […] Compounds. […] If the clinical Cmax for an agent had not been determined, the highest concentration tested was 10 microM. […]
Outcome field: choose from 1 (active), 0 (inactive)

Prompt: Given CCN1CCN(Cc2ccc(Nc3ncc(F)c(-c4cc(F)c5nc(C)n(C(C)C)c5c4)n3)nc2)CC1 + CCn1c(-c2cccnc2C(C)OC)c2c3cc(ccc31)N1CCOC(CC(NC(=O)C(C(C)C)N(C)C(=O)C3(F)CCN(C(=O)C#CC(C)(C)N(C)C)CC3)C(=O)N3CCCC(N3)C(=O)OCC(C)(C)C2)C1 , state the outcome it received in this test.
Completion: 0

Prompt: Look up the recorded call for Nc1ccn(C2OC(CO)C(O)C2(F)F)c(=O)n1 (stereo not drawn) + CCn1c(-c2cc(N3CCN(C)CC3)cnc2C(C)OC)c2c3cc(ccc31)-c1csc(n1)CC(NC(=O)C1CC1C)C(=O)N1CCCC(N1)C(=O)OCC(C)(C)C2 in this test.
Completion: 1

Prompt: # lookup: test call for CC(=O)OC12COC1CC(O)C1(C)C(=O)C(O)C3=C(C)C(OC(=O)C(O)C(NC(=O)OC(C)(C)C)c4ccccc4)CC(O)(C(OC(=O)c4ccccc4)C21)C3(C)C (stereo not drawn) + CCn1c(-c2cccnc2C(C)OC)c2c3cc(ccc31)N1CCOC(CC(NC(=O)C(C(C)C)N(C)C(=O)C3(F)CCN(C(=O)C#CC(C)(C)N(C)C)CC3)C(=O)N3CCCC(N3)C(=O)OCC(C)(C)C2)C1
Completion: 1

---

- Test system: LG0567-F671-PDC complex spheroids viability
- procedure text: Anticancer human tumor LG0567-F671-PDC cell line growth inhibition [RAS]; active = viability on the fitted dose curve at most 10% of control; inactive = the rest;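 note: spheroids exposed to compound for seven days before readout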
- details: compound 0.00949 µM
Answer with one of the outcomes True = active, False = inactive

Prompt: Entry CCn1c(-c2cc(N3CCN(C)CC3)cnc2C(C)OC)c2c3cc(ccc31)-c1csc(n1)CC(NC(=O)C1CC1C)C(=O)N1CCCC(N1)C(=O)OCC(C)(C)C2 (centres undefined) : call = ?
Completion: True

Prompt: What call does the record list for `CCc1c2c(nc3ccc(O)cc13)-c1cc3c(c(=O)n1C2)COC(=O)[C@]3(O)CC` ?
Completion: False

Prompt: Could you check what this test reported for CCn1c(-c2cccnc2C(C)OC)c2c3cc(ccc31)N1CCOC(CC(NC(=O)C(C(C)C)N(C)C(=O)C3(F)CCN(C(=O)C#CC(C)(C)N(C)C)CC3)C(=O)N3CCCC(N3)C(=O)OCC(C)(C)C2)C1 (centres undefined) ?
Completion: False

Prompt: // param item: CC1(C)CCC(Nc2ncc(C(F)(F)F)c(-c3c[nH]c4c(P(C)(C)=O)c(C#N)ccc34)n2)CN1 (centres undefined) ; yields the recorded call
Completion: False

---

- System: LG0567-F671-PDC complex spheroids viability
- procedure text: Anticancer human tumor LG0567-F671-PDC cell line growth inhibition [RAS];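 note: spheroids exposed to compound for seven days before readout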
- details: second compound 0.1 µM; first compound 0.316 µM; stronger effect = lower value
- From the text: RAS pathway inhibitors in Combinations in Complex Spheroids A high-throughput screen of multi-cell type tumor spheroids was designed to identify active combinations of RAS pathway inhibitors and targeted small molecules. Complex spheroids include a stromal component modeled by human endothelial cells (HUVEC) and fibroblasts modeled by human mesenchymal stem cells (MSCs). […] Compounds. […] If the clinical Cmax for an agent had not been determined, the highest concentration tested was 10 microM. […]
Please go through the items and note down their viability, T/C.
Give just the numeric value; % need not be written.

Prompt: Give reported viability, T/C value for CC(Nc1ccc2c(c1)OCCn1cc(N3C(=O)OCC3C(F)F)nc1-2)C(N)=O (stereo unspecified) + C#Cc1c(F)ccc2cc(O)cc(-c3ncc4c(N5CC6CCC(C5)N6)nc(OCC56CCCN5CC(F)C6)nc4c3F)c12
Completion: 43.2

Prompt: Note down viability, T/C recorded for Nc1ccn(C2OC(CO)C(O)C2(F)F)c(=O)n1 (stereo unspecified) + C=CC(=O)N1CCN(c2nc(OCC3CCCN3C)nc3c(F)c(-c4nc(N)cc(C)c4C(F)(F)F)c(Cl)cc23)C(C)C1
Completion: 12.9

Prompt: State its viability, T/C for this compound: Nc1ccn(C2OC(CO)C(O)C2(F)F)c(=O)n1 (stereo unspecified) + C#Cc1c(F)ccc2cc(O)cc(-c3ncc4c(N5CC6CCC(C5)N6)nc(OCC56CCCN5CC(F)C6)nc4c3F)c12
Completion: 59.8

Prompt: Find the measured viability, T/C of CC1(O)CCCC1n1c(=O)c(C(F)F)cc2cnc(NC3CCN(S(C)(=O)=O)CC3)nc21 (stereo unspecified) + C=CC(=O)N1CCN(c2nc(OCC3CCCN3C)nc3c(F)c(-c4nc(N)cc(C)c4C(F)(F)F)c(Cl)cc23)C(C)C1 and report it.
Completion: 15

Prompt: Dear colleague, please send me the reported viability, T/C for CC(=O)OC12COC1CC(O)C1(C)C(=O)C(O)C3=C(C)C(OC(=O)C(O)C(NC(=O)OC(C)(C)C)c4ccccc4)CC(O)(C(OC(=O)c4ccccc4)C21)C3(C)C (stereo unspecified) + C#Cc1c(F)ccc2cc(O)cc(-c3ncc4c(N5CC6CCC(C5)N6)nc(OCC56CCCN5CC(F)C6)nc4c3F)c12 when you can.
Completion: 53.2

Prompt: Fill in reported viability, T/C for this entry: CC(C)NCC(C(=O)N1CCN(c2ncnc3c2C(C)CC3O)CC1)c1ccc(Cl)cc1 (stereo unspecified) + C=CC(=O)N1CCN(c2nc(OCC3CCCN3C)nc3c(F)c(-c4nc(N)cc(C)c4C(F)(F)F)c(Cl)cc23)C(C)C1
Completion: 11.4
